Just for reference, patent US20240059784A1 is where these values come from.

Kd values for the binders below.
MEASUREMENT TARGET: T1, human TfR ECD (His-tagged) (human, UniProt P02786 89-760)
T1 construct: also called hTfR-ECD-6His; his-tagged hTfR-ECD
T1 sequence (P02786 other isoform, or with tags, fused parts or gaps): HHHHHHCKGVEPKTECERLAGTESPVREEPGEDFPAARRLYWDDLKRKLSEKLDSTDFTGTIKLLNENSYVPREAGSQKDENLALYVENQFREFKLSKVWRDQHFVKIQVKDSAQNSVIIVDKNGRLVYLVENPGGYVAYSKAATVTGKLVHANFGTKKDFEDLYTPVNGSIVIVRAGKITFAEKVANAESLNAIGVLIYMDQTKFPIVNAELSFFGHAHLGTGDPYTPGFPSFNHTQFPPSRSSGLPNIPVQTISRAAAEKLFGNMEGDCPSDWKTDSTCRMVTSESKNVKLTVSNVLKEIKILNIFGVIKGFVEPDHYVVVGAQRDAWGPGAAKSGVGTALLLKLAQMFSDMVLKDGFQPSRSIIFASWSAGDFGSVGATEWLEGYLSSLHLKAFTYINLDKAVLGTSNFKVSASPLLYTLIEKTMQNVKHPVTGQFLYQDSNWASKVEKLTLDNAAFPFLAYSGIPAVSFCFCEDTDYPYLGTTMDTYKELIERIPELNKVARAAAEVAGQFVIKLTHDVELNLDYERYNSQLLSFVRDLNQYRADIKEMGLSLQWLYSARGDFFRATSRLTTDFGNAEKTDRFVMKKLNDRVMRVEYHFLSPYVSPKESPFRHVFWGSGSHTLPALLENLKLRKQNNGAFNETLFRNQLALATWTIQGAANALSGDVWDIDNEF
TEST METHOD NOTES: SPR (Biacore 8K), 37 C; TfR ECD amine-coupled to CM4 chip, TBP as analyte; multi-cycle kinetics, 2-state fit; n = 3
Express your answer as a number followed by its unit.

Recorded results for 3 binders are shown here.
BINDER	Kd
TBP3 (TBD3 Fab-hIgG4PAA Fc) (antibody, V domains shown, Fab-Fc format, one HC and one LC) VH: EVQLVESGGGLVKPGGSLRLSCVASGFTFSSYSMNWVRQAPGKGLEWVSSISRSSSYIYYADSVKGRFTISRDNAKNSLYLQMNSLRAEDTAVYYCARIHGYSNSDAFDIWGQGTLVTVSS VL: DIQMTQSPSAMSASVGDRVTITCRASQGISHYLVWFQQKPGKVPKRLIYAASSLQSGVPSRFSGSGSGTEFTLTISSLQPEDFATYYCLQHNSYPRTFGQGTKVEIKR	0.005 nM
TBP1 (TBD1 Fab-hIgG4PAA Fc) (antibody, V domains shown) VH: EVQLVESGGGLVKPGGSLRLSCVASGFTFSSYSMNWVRQAPGKGLEWVSSISRSSSYIYYADSVKGRFTISRDNAKNSLYLQMNSLRAEDTAVYYCAREHGYSNSDAFDIWGQGTLVTVSS VL: DIQMTQSPSAMSASVGDRVTITCRASQGISNYLAWFQQKPGKVPKRLIYAASSLQSGVPSRFSGSGSGTEFTLTISSLQPEDFATYYCLQHNSYPRTFGQGTKVEIKR	0.966 nM
TBP5 (TBD5 Fab-hIgG4PAA Fc) (antibody, V domains shown, Fab-Fc format, one HC and one LC) VH: EVQLVESGGGLVQPGGSLRLSCAASGFTFRTYWMHWVRQAPGKGLLWVSRINGDGSRTNYADSVKGRFTISRDNAKKTLYLQMNSLRAEDTAVYFCARSSYAFDVWGQGTMVTVSS VL: DVVMTQTPLSLPVTPGEPASISCRSSQSLLDSDDGSTYLDWYLQKPGQSPQLLIYLLSNRASGVPDRFSGSGSGTVFTLKISSVEAADVGVYYCMQRIEFPLTFGGGTKVEIKR	4.25 nM

Consider the record given below.
input: Could you share which Kd value was measured for TBP6 (TBD6 Fab-hIgG4PAA Fc) (antibody, V domains shown, Fab-Fc format, one HC and one LC) VH: EVQLVESGGGLVQPGGSLRLSCAASGFTFRTYWMHWVRQAPGKGLVWVSRINSDGSRTNYADSVKGRFTISRDNAKNTLYLQMNSLRAEDTAVYYCARSSYAFDVWGQGTLVTVSS VL: DIVMTQTPLSLPVTPGEPASISCRSSQSLLDSDDGSTYLDWYLQKPGQSPQLLIYLLSNRASGVPDRFSGSGSGTDFTLKISRVEAEDVGVYYCMQRIEFPLTFGGGTKVEIKR ?
output: 2.25 nM
